pIC50: −log10 of the molar value.
Compiled record: pIC50 values for EED-EZH2 (Homo sapiens (Human)) across several sources.
Everything with pIC50 lower than 8 is N; everything else, including exactly 8, is Y.

Take a look at these entries with their results.
COc1cc(Cl)c(-c2cnc(NCc3c(F)ccc4c3CCO4)n3cnnc23)cn1    Y
CCC(=O)N1CC=C(c2cnc(NCc3c(F)ccc4c3CCO4)n3cnnc23)CC1    N
Cc1nc(C(F)(F)CO)ccc1-c1cnc(NCc2c(F)ccc3c2CCO3)n2cncc12    Y
Fc1ccc2c(c1CNc1ncc(-c3ccnc(C(F)(F)F)c3)c3nncn13)CCO2    Y

IN: Is pIC50 for COc1ccc(-c2cnc(NCc3c(F)ccc4c3CCO4)n3cnnc23)cn1 at or above 8?
OUT: Y
